test system: HOP-62 NSCLC; experiment: NCI tumour cell line growth inhibition, 48 h
Where a SMILES comes first, the peptide text is derived from it. The star is where a group is joined. Boc = CC(C)(C)OC(=O)*; nBu = CCCC*
reported.property: TGI

Examples from the recorded data:
CC(C)(C)O/N=C/c1cc(NC(=S)c2ccsc2)ccc1Cl ... 29.4 µM
COC(=O)c1ccc2c(c1)CC1(C2)Cc2ccccc2C1=O (centres undefined) ... > 100 µM
Nc1nc(SCC(=O)c2ccc(Br)cc2)c2[nH]cnc2n1 ... > 100 µM
COc1cc(C2c3cc4c(cc3C(=O)C3CCC(=O)N32)OCO4)cc(OC)c1O (centres undefined) ... > 50 µM
Cc1nc2ccccc2c(=O)n1/N=C(\N=Nc1cc(Cl)ccc1Cl)c1ccccc1 ... > 100 µM
CSC1=Nc2c(c(C)c(-c3ccccc3)n2COC(CO)CO)C2=NC(=O)CC(C)N12 (centres undefined) ... > 100 µM
N#C/C(=C(/O)CCl)c1nc2ccccc2o1 ... 41.9 µM
CCCCOc1ccc(CC(NC(=O)OC(C)(C)C)C(=O)NC(C)C(=O)NC(Cc2ccccc2)C(=O)NCC(N)=O)cc1 (centres undefined) (Boc-Y(nBu)AFG-NH2; configuration not given here) ... > 100 µM

According to the records, this molecule COc1cc([C@@H]2c3cc4c(cc3[C@@H](NCc3cccc(C#N)c3)C3COC(=O)[C@@H]32)OCO4)cc(OC)c1O (some centres undefined) displays TGI of 1.79 µM

###

test system: HL-60(TB) leukemia; assay: NCI tumour cell line growth inhibition, 48 h
reported.property: GI50

The examples below pair each entry with its known result.
Cc1cc(S(N)(=O)=O)c(S/C(=N\NS(=O)(=O)c2ccccc2)c2ccc(Cl)cc2)cc1Cl ... 50600 nM
CN(C)c1ccc(-c2ccc(-c3ccc(C(=N)N)cn3)o2)cc1 ... 1760 nM
COc1cccc(-c2nc3sccn3c2-c2ccnc(NCCCNS(=O)(=O)c3ccccc3)c2)c1 ... 2330 nM
CCCCCC[C@H]1C(=O)O[C@H](C)[C@H](NC(=O)c2cccc(NC=O)c2OC)C(=O)O[C@@H](C)[C@@H]1OC(=O)CCC (tested in a mixture with another compound) ... 4680 nM
CC1(C)N=C(N)N=C(N)N1c1cccc(CCc2ccccc2)c1 ... 1890 nM

The molecule listed as C=C1C[C@@H]2O[C@H]3[C@H]4[C@@H](CC[C@@](C)(OC(=O)CCC)[C@H]42)[C@@H](C)C(=O)O[C@@]3(C)CC[C@H]1OO shows GI50 equal to 12200 nM

The recorded GI50 for N#[N+]c1ccc(Nc2ccccc2)cc1 is > 50 µg/mL

Quick note, GI50 for COc1cc(NC2CCCCC2O)c2nc(-c3ccc(Cl)cc3)ccc2c1 (stereo not given) landed at 7570 nM

For record COc1ccc(C2=Nn3c(nnc3-n3nc(C)cc3C)SC2)cc1 the listed GI50 is 35.8 nM

GI50 for COc1ccc2c(c1OC)O/C(=C\c1ncc([N+](=O)[O-])n1C)C2=O is 834 nM

For record COCC(C(=O)OC1C/C=C/C=C/C(=O)OC(C(C)C(O)C(C)CCC(OC(=O)C(C)N(C)C)C(C)C(OC(C)=O)C(C)/C=C/N(C)C=O)C/C=C/C(OC)CC(C)C/C=C(\C)C(OC)CCC(C)C(O)C1C)N(C)C (stereo not given) the listed GI50 is < 0.1 nM

Entry CCOc1ccc2cc(-c3nn(CC4CCNCC4)c4ncnc(N)c34)ccc2c1 ; GI50 = 14700 nM

Measured GI50, COc1ccc(/C=C/C(=O)c2cc3c(N)c(C(=O)Nc4ccc(OC)cc4)sc3nc2C)cc1 : 323 nM

Input CC[C@H]1OC(=O)[C@H](C)[C@@H](O[C@H]2C[C@@](C)(OC)[C@@H](O)[C@H](C)O2)[C@H](C)[C@@H](O[C@@H]2O[C@H](C)C[C@H](N(C)C)[C@H]2O)[C@](C)(OC)C/C(C)=C2/O[C@@]1(C)C=C2C . Output GI50: 1860 nM

Given item COc1cc2c3cc1Oc1c(OC)c(OC)cc4c1C(Cc1ccc(O)c(c1)Oc1ccc(cc1)CC3N(C)CC2)N(C)CC4 (stereo not given) , the value recorded as its GI50 is 20200 nM

###

Entries annotated with measured TGI
system: UO-31 renal; assay: NCI tumour cell line growth inhibition, 48 h

O=[N+]([O-])/C=C/c1ccc(Cl)cc1[N+](=O)[O-] ... 3.82 µM

Lab book: TGI of COc1ccc(/C=C/C(=O)c2cc3c(N)c(C(=O)Nc4ccc(OC)cc4)sc3nc2C)cc1 noted as > 50 µM

Consider COc1ccc(C2C3CCc4ccccc4C3=NN2S(=O)(=O)c2cccc(C(=O)O)c2OC)cc1 (centres undefined) . Its measured TGI is > 100 µM

Note to self: TGI recorded for COC(=O)c1ccc2c(c1)CC1(C2)Cc2ccccc2C1=O (centres undefined) was > 100 µM

So for CC(C)[C@H]1NC(=O)[C@H]2N=C(S[C@H]2C)[C@@H]2CCCN2C(=O)[C@H](Cc2ccccc2)NC(=O)[C@@H]2CSC(=N2)[C@@H](Cc2ccccc2)NC(=O)[C@@H]2CSC1=N2 , the logged TGI turned out to be > 50 µM

// field: TGI; key: N#C/C(=C(/O)CCl)c1nc2ccccc2o1 ; value = 12.7 µM

###

# GI50 per entry
system: T-47D breast; test: NCI tumour cell line growth inhibition, 48 h

C=C1C[C@@H]2O[C@H]3[C@H]4[C@@H](CC[C@@](C)(OC(=O)CCC)[C@H]42)[C@@H](C)C(=O)O[C@@]3(C)CC[C@H]1OO ... 21.4 µM
COc1ccc2c(c1)C(=O)c1c-2c(OCCN(C)C)nc2cc(OC)c(OC)cc12 ... > 100 µM
OCC(O)C(O)C(O)C(O)c1nnc2c(-c3ccccc3)nc3ccccc3n12 (centres undefined) ... 28.6 µM

Next compound, please.
Item: C#C[C@]1(O)CC[C@H]2[C@@H]3CC=C4c5nc(N)sc5CC[C@]4(C)[C@H]3CC[C@@]21C | GI50: 3.98 µM

###

test system: OVCAR-4 ovarian; test: NCI tumour cell line growth inhibition, 48 h; in the data active means GI50 below about 0.43 µM; inactive means the rest
A correct response names exactly one class from t = active, f = inactive

Study these solved cases before continuing.
COc1cccc(-c2nc3sccn3c2-c2ccnc(NCCCNS(=O)(=O)c3ccccc3)c2)c1 ... f
CC(C)OP(=O)(O)c1ncc(-c2ccc(C(F)(F)F)cc2)c(NC2CCCCCC2)n1 ... f
COc1ccc(-c2c(N)noc2-c2cc(OC)c3c(c2)OCCO3)cc1 ... t
COc1cc2c3cc1Oc1c(OC)c(OC)cc4c1C(Cc1ccc(O)c(c1)Oc1ccc(cc1)CC3N(C)CC2)N(C)CC4 (stereo not given) ... f

### Prompt Outcome logged for Nc1ccccc1C#Cc1ccccc1C#Cc1cccs1 in this assay:
### Response f

### Prompt Assay outcome for NC(=O)/C(=C/n1cnc(-c2cc(C(F)(F)F)cc(C(F)(F)F)c2)n1)c1cncnc1 : what was it?
### Response t

### Prompt Tell me the recorded outcome of this test for CN(C)c1ccc(C(O)C2=CC(=O)c3ccccc3C2=O)cc1 (stereo not given) .
### Response f

### Prompt Recorded test outcome, item C#C[C@]1(O)CC[C@H]2[C@@H]3CC=C4c5nc(N)sc5CC[C@]4(C)[C@H]3CC[C@@]21C
### Response f

### Prompt Called result for CCOC(=O)c1c(CN2CCN(C)CC2)nc2ccc(Cl)cc2c1-c1ccccc1
### Response f

### Prompt Please indicate how the test categorized CCCCCCCCCCCCCCCC[n+]1ccccc1 .
### Response f

### Prompt Status in this test for Nn1c(-c2ccc(Cl)cc2)nc2c(-c3ccc(Cl)cc3)nc3ccc(Cl)cc3c2c1=O ?
### Response f

### Prompt Test call for this compound, please: CN1CC[C@H](c2c(O)cc(O)c3c(=O)cc(-c4ccccc4Cl)oc23)[C@H](O)C1
### Response t

### Prompt What outcome does the record of this test show for Cc1cc(S(N)(=O)=O)c(S/C(=N\NS(=O)(=O)c2ccccc2)c2ccc(Cl)cc2)cc1Cl ?
### Response f

### Prompt I would be grateful if you could indicate the recorded call for CC1(C)N=C(N)N=C(N)N1c1cccc(CCc2ccccc2)c1 .
### Response f

### Prompt Fill in: this test's call for CC1(C)C2CCC13C(=O)C1OC3(C2)C2C(=O)c3c(ccc4c3ccc3ccccc34)C(=O)C12 (stereo not given) is ___
### Response f

### Prompt Per the assay record, what outcome was assigned to C=C1C[C@@H]2O[C@H]3[C@H]4[C@@H](CC[C@@](C)(OC(=O)CCC)[C@H]42)[C@@H](C)C(=O)O[C@@]3(C)CC[C@H]1OO ?
### Response f

### Prompt What did the test return for C=CC(=O)Nc1cc2c(Nc3ccc(F)c(Cl)c3)ncnc2cc1C#CC(C)(C)N1CCN(C)CC1 ?
### Response f

### Prompt How did this test come out for CCOC(=O)/C(=C\c1ccc2ccccc2c1)P(=O)(OCC)OCC ?
### Response f

### Prompt # lookup: test call for O=C1Nc2ccc3c(c2/C1=C\c1cc2c(cc1Br)OCO2)OCO3
### Response f

### Prompt Status in this test for OCC(O)C(O)C(O)C(O)c1nnc2c(-c3ccccc3)nc3ccccc3n12 (stereo not given) ?
### Response f
